biological target: human Nav1.8 (Homo sapiens (Human), UniProt Q9Y5Y9); test: E-VIPR optical membrane potential assay with electrical stimulation; settings: HEK cells expressing human Nav1.8
Sequence (Q9Y5Y9 whole entry): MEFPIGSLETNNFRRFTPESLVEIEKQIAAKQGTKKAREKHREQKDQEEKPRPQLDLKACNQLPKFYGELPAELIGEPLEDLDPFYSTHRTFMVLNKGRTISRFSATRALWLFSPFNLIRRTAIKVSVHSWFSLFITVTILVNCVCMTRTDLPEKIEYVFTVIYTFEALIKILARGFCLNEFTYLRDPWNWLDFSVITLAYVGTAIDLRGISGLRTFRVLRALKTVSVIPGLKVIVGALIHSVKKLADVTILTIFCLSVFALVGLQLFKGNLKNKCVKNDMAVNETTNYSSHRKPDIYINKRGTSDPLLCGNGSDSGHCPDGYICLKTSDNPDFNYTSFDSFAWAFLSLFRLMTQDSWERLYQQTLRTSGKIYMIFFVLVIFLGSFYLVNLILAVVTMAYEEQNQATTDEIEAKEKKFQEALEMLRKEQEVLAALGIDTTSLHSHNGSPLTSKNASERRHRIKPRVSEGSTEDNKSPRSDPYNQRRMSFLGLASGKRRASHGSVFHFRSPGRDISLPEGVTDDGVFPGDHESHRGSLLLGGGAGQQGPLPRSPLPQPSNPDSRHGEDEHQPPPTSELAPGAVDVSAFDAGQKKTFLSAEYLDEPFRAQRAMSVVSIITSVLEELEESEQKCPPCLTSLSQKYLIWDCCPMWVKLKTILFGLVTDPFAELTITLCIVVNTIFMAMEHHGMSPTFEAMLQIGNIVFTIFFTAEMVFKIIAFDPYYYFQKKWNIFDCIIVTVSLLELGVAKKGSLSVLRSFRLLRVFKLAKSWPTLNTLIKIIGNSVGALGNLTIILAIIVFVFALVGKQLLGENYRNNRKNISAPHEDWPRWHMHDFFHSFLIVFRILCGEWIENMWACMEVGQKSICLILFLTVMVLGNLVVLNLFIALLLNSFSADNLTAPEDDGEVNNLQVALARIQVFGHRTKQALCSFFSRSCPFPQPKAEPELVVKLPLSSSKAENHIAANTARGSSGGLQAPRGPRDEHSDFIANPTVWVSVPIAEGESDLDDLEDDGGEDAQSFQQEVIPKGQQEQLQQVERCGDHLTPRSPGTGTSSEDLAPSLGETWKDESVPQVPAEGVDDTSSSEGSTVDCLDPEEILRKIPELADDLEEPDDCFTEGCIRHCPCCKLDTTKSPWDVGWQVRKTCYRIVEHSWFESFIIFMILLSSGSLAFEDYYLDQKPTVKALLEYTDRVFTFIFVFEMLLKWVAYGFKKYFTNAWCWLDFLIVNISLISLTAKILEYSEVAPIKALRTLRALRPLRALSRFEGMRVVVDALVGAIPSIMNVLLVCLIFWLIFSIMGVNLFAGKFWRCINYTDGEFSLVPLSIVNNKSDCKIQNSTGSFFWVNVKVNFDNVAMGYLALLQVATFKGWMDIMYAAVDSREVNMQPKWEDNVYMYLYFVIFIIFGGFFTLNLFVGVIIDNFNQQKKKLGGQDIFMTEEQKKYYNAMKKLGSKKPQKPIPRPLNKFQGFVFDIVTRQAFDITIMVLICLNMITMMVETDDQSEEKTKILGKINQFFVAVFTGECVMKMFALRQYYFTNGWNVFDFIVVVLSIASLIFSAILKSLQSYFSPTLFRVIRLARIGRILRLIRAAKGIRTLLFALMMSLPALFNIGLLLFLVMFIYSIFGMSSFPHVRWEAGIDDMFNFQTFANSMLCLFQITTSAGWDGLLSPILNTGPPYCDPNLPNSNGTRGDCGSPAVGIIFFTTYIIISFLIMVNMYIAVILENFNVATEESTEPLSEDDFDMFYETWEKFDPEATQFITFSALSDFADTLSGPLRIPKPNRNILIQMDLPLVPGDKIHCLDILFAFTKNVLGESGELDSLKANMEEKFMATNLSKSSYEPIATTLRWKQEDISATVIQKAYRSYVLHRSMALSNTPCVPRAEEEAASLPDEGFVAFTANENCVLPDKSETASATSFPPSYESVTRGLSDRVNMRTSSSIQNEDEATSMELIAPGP
Decide using IC50 alone. Strictly below 30 nM: YES. Equal to or above 30 nM: NO.

structureSmiles | category
COc1cc(F)ccc1Oc1nc2ccccc2nc1C(=O)Nc1nc(C(=O)O)co1 | NO
NS(=O)(=O)c1cccc(NC(=O)c2nc3ccccc3nc2Oc2ccccc2)c1 | NO
O=C(O)c1ccc(NC(=O)c2nc3ccccc3nc2Oc2ccc(OC(F)(F)F)cc2)cc1 | NO
COc1cc(F)ccc1Oc1nc2ccccc2nc1C(=O)Nc1ccc2[nH]ncc2c1 | NO
O=C(O)c1cc(NC(=O)c2nc3ccccc3nc2Oc2ccc(OC(F)(F)F)cc2)ccn1 | YES
COc1ccc(Oc2nc3ccccc3nc2C(=O)Nc2ccc(C(=O)O)nc2)c(F)c1 | NO
COc1cc(F)ccc1Oc1nc2ccccc2nc1C(=O)Nc1ccc2cn[nH]c2c1 | NO
COc1cc(F)ccc1Oc1nc2ccccc2nc1C(=O)Nc1cc[nH]n1 | NO
NS(=O)(=O)c1cccc(NC(=O)c2nc3ccccc3nc2Oc2ccc(F)cc2F)c1 | YES
COc1cc(F)ccc1Oc1nc2ccccc2nc1C(=O)Nc1ccc2nc[nH]c2c1 | NO
COc1cc(Cl)ccc1Oc1nc2ccccc2nc1C(=O)Nc1cccc(S(N)(=O)=O)c1 | YES
NS(=O)(=O)c1cccc(NC(=O)c2nc3ccccc3nc2Oc2ccc(OCC(F)(F)F)cc2)c1 | NO
NS(=O)(=O)c1cccc(NC(=O)c2nc3ccccc3nc2Oc2ccc(F)cc2)c1 | YES
COc1cc(F)ccc1Oc1nc2ccccc2cc1C(=O)Nc1cccc(S(N)(=O)=O)c1 | YES
NS(=O)(=O)c1cccc(NC(=O)c2cc3ccccc3nc2Oc2ccc(OC(F)(F)F)cc2)c1 | YES
Cc1cc(Cl)ccc1Oc1nc2ccccc2nc1C(=O)Nc1cccc(S(N)(=O)=O)c1 | YES
